B1: Poly(rC)-binding protein 1, residues 278 to 350; numbered along this chain, Q15365 (parent)
chain: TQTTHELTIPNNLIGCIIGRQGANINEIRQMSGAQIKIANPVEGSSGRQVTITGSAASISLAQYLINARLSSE

variants of: B1; experiment: abundance fitness (aPCA) (normalised: wild type 0, dead -1); higher = more abundant; growth selection in yeast, the domain comes from the species named; settings: Homo sapiens
reported_property: abundance fitness
Respond numerically, and do not add a unit to the figure.

variant_id: I66S
abundance fitness: -0.721

Supply measured abundance fitness of C16I in your reply.
0.266

// fetch abundance fitness given entry R29A
-0.059
